Source of measurements: PubChem BioAssay (NCI)

assay: NCI Yeast Anticancer Drug Screen. Data for the sgs1 mgt1 strain (AID 161);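 further: 0% = growth of cultures given vehicle only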; conditions: S. cerevisiae sgs1 mgt1 strain, at 50.0 µM (retest, dose inferred, filed as 5.0)
About 79,000 compounds went through this panel and 15% of them were active in at least one assay; those are over-represented in the sample as a whole. The source made the active and inactive calls. No stated cut-off is given here; in the data, active means growth inhibition above about 70%; inactive means the rest.
A correct response names exactly one class from active, inactive

Here are 3 compounds together with their reported answers.
Cc1c2ccncc2c(C)c2c1[nH]c1ccc(OCCN(C)C)cc12
inactive
O=C(c1ccccc1)C(Cl)c1ccccc1 (configuration not stated)
active
N=C(N)Sc1ccc([N+](=O)[O-])cc1Cl
active

IN: Look up the recorded call for ON=C(CC(O)(C(F)(F)Cl)C(F)(F)Cl)CC(O)(C(F)(F)Cl)C(F)(F)Cl in this test.
OUT: active

IN: Look up the recorded call for CN[C@@H](Cc1cccc2ccccc12)C(=O)N[C@@H](CC(C)C)B(O)O in this test.
OUT: inactive

IN: Look up the recorded call for Cc1ccc(C(=O)/C=C/c2ccccc2)cc1 in this test.
OUT: inactive

IN: Look up the recorded call for C=C1C(O)C2(O)OCC34C(CC5C(C)=CC(=O)C(O)C5(C)C23)OC(=O)C(OC(=O)C/C=C(\C)CCCCC)C14 (configuration not stated) in this test.
OUT: active

---

test: NCI Yeast Anticancer Drug Screen. Data for the cln2 rad14 strain (AID 165);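 further: 0% = growth equal to vehicle treated cultures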; settings: S. cerevisiae cln2 rad14 strain, at 5.0 µM (retest, dose inferred, filed as 0.5), stronger effect = higher value
About 79,000 compounds went through this panel and 15% of them were active in at least one assay; those are over-represented in the sample as a whole.
# growth inhibition values compiled below
Return type: number; implicit unit %.

IN: Which value of growth inhibition has been reported for Cc1cccc(/C=N/NC(=S)Nc2ccccc2)n1 in the records?
OUT: -37

IN: Which value of growth inhibition has been reported for CC1C=CC(C)C2C(=O)C3C(C)C=CC(C)C3C(=O)C12 (stereo unspecified) in the records?
OUT: 18

IN: Which value of growth inhibition has been reported for COC(=O)C(=O)C(C(=O)Nc1cccc(C)c1C)C1Sc2ccccc2NC1=O (stereo unspecified) in the records?
OUT: 95

IN: Which value of growth inhibition has been reported for CCCCCCCCCCCCCCOS(=O)(=O)O in the records?
OUT: 8

IN: Which value of growth inhibition has been reported for Cn1nc2c(c(Cl)c1=O)Nc1ccccc1O2 in the records?
OUT: -8

IN: Which value of growth inhibition has been reported for O=c1ssc(=Nc2ccc(Cl)cc2)n1-c1ccc(Cl)cc1 in the records?
OUT: 16

---

# growth inhibition values compiled below
assay: NCI Yeast Anticancer Drug Screen. Data for the bub3 strain (AID 167); settings: S. cerevisiae bub3 mutant strain, at 5.0 µM (retest, dose inferred, filed as 0.5), stronger effect = higher value
Compounds without any hit were thinned out: in the full panel of roughly 79,000, 15% have a hit.
Return type: number; implicit unit %.

Please review the entries below; each comes with its answer.
O=C1C=CC(=Nc2cccc3c2-c2ccccc2C3)O1
99
CCc1cccc(CC)c1NC(=S)N/C=C(\C#N)C(=O)c1ccc2ccccc2c1
3
Nc1ccc(-c2cccc(-c3ccccc3)c2)cc1
-15
Cc1ccccc1C[n+]1ccccc1Br
-12

IN: Which value of growth inhibition has been reported for O=C(Nc1cc(Cl)c(Cl)cc1Cl)C(=O)C(C(=O)c1ccc2ccccc2c1)C1OC(=O)c2ccccc21 (stereo unspecified) in the records?
OUT: -8

IN: Which value of growth inhibition has been reported for Cn1c(=O)c2c(O)c(-c3ccccc3)c(=O)n3c4ccccc4n(c1=O)c23 in the records?
OUT: 10
